B1: Glucocorticoid receptor, residues 419 to 494; numbered along this chain, P04150 (parent)
chain: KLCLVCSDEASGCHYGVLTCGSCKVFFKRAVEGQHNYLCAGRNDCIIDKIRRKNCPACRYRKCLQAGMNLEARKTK

Variants of: B1
ASSAY PROTOCOL: abundance fitness (aPCA) (normalised: wild type 0, dead -1); higher = more abundant; growth selection in yeast, the domain comes from the species named
CONDITION SET: Homo sapiens
Would you please tag the item Y when its abundance fitness is -0.1 or above, and N when it is below?

MUTANT LABEL | GROUP
N36D | Y
N36F | Y
H14R | N
G21N | N
M68F | Y
K1I | N
E71W | N
Q65S | Y
I46E | Y
I47V | Y
G33K | Y
F27N | N
A72R | Y
S11V | Y
G16P | N
G67S | N
A66P | N
D8C | N
K74G | Y
P56E | Y
Y60F | Y
C45K | N
C39Q | N
C58I | N
C6S | N
R59I | N
C20I | N
I50M | Y
A10N | N
A66W | N
G16V | N
C58Q | N
A10L | Y
G33A | Y
S11D | Y
I50R | Y
G16T | N
F27K | N
C55T | N
K76W | N
Q34K | Y
H14K | Y
A10C | N
V31A | Y
A66Y | Y
E9L | Y

Origin of measurements: the Human Domainome abundance scans (Beltran et al. 2025)
